Where these numbers come from: ChEMBL document CHEMBL1201862

# System: Genome polyprotein (dengue virus type 2)
# Test Protocol: Dengue-2 NS5 methyltransferase inhibitors, primary screen, biochemical, confirmation dose response (AID 588689)
# Assay type: functional
Calls of active or inactive are those of the source.
Known IC50 of a selection of molecules

Worked cases, IC50 given:
>  <Smiles Input>
CC(=O)Nc1ccc(S(=O)(=O)Nc2nc3ccccc3nc2Nc2ccc(C(=O)O)c(O)c2)cc1

>  <Test Readout>
IC50

>  <Measured Result>
> 100 µM (active)

$$$$
>  <Smiles Input>
Cc1cc(NS(=O)(=O)c2ccc(NC(=O)CSc3nc(O)c4c(C)c(C)sc4n3)cc2)no1

>  <Test Readout>
IC50

>  <Measured Result>
81.9 µM (active)

$$$$

Lab note: next molecule to report on.
Query block: IC50 for O=C(O)c1cc([N+](=O)[O-])c(Sc2nc3ccccc3[nH]2)c([N+](=O)[O-])c1 ?
Result block: > 100 µM (active)

----------
// reported AC50 for each item listed
# System: DNA repair and recombination protein RAD54-like (Homo sapiens, UniProt Q92698)
# Sequence (Q92698 whole entry): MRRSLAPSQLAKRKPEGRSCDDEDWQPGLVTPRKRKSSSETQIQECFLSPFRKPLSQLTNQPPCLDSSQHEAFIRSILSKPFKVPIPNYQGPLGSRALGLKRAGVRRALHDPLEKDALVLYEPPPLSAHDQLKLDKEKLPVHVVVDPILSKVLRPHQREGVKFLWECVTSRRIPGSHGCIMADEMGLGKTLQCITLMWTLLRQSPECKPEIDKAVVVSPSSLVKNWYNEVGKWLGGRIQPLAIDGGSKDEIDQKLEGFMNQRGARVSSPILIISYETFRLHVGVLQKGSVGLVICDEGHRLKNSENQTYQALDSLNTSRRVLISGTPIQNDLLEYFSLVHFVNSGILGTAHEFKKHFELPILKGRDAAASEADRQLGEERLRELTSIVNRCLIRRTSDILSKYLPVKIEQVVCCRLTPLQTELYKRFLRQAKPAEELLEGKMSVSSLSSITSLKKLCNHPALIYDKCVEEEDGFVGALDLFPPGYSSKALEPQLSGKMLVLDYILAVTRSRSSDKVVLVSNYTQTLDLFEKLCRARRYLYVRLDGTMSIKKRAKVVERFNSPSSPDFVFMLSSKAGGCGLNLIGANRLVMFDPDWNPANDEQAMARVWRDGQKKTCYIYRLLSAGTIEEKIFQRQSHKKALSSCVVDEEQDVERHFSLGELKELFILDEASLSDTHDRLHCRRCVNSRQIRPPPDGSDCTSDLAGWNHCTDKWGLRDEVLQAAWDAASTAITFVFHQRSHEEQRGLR
# Test Protocol: inhibitors of human RAD54 branch migration, confirmation, biochemical, fluorescence, cherry-picked samples, dose series (AID 651657)
# Assay type: functional
Active and inactive are the calls of the source.

Some solved cases for reference:
>  <Molecule>
Cc1cc2oc3cc(NCCC4CCCN4C)ccc3c(=O)c2cc1C (centres undefined)

>  <AC50>
13.3 µM (active)

$$$$
>  <Molecule>
CCCCN(CC)CCNC(=O)c1cc2c(-c3ccc(Cl)cc3)nn(C)c2s1

>  <AC50>
21.7 µM (active)

$$$$
>  <Molecule>
COc1ccc(Nc2c3c(nc4ccc(C)cc24)CCC3)cc1

>  <AC50>
84.4 µM (active)

$$$$

Query block: Give the measured AC50 of Cc1cccn2c(=O)c3cc(C(=O)NCCN4CCOCC4)c(=N)n(CCN4CCOCC4)c3nc12 .
Result block: 15.9 µM (active)

----------
# Test Protocol: Luminescence Cell-Based Dose Response HTS to Identify Inhibitors of 5'UTR Stem-Loop Driven Prion Protein mRNA Translation in H4 Neuroglioblastoma Cells. [Related pubchem assays: 1827 (Project Summary), 1813 (Primary HTS)]
# Assay type: functional
Active and inactive are the calls of the source.
Test Readout: EC50

Worked examples, 3 molecules total:
>  <Molecule>
CCCN1CCC(=NNc2ccc(S(=O)(=O)N3CCOCC3)cc2[N+](=O)[O-])CC1

>  <EC50>
13.8 µM (active)

$$$$
>  <Molecule>
CCCCNc1nc(NC)nc(Cl)c1SC

>  <EC50>
> 120 µM (not active)

$$$$
>  <Molecule>
CN(C)c1ccc2nc3ccc(N(C)C)cc3[s+]c2c1 [METHYLENE BLUE ANHYDROUS]

>  <EC50>
11.1 µM (inconclusive)

$$$$

Query block: Quick one: EC50 for C/C(CC(=O)Nc1ccccn1)=N\NC(=O)c1ccccc1O ?
Result block: 10.9 µM (active)

Query block: For the molecule Oc1ccc(/C=N/Nc2nccnc2Cl)c(O)c1 , what EC50 is on record?
Result block: 6.33 µM (active)

Query block: Item COc1cccc(/C=N\NC(=O)c2ccc(Cn3cc(Br)c([N+](=O)[O-])n3)o2)c1O has what recorded EC50?
Result block: 20.2 µM (active)

----------
# System: UniProtKB P38532
# Sequence (P38532 whole entry): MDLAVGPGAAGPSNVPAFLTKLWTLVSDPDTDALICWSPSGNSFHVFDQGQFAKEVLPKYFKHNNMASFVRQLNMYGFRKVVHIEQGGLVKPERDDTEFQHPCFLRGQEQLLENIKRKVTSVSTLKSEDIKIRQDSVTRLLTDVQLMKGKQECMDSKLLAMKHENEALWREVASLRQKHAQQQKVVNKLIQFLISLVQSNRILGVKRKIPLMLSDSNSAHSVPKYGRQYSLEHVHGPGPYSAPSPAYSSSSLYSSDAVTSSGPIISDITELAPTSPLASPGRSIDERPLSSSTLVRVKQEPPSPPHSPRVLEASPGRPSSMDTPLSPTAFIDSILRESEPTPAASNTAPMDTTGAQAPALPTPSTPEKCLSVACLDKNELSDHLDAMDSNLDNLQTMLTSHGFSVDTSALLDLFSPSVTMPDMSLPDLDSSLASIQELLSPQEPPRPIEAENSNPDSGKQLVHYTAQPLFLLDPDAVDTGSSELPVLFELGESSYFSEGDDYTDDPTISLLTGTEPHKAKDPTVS
# Test Protocol: inhibition of MG132-induced HSE-luciferase signal, confirmation, cell-based, NIH3T3, luminescence, dose retest (AID 2382);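 also: NIH3T3 fibroblasts with HSF1-driven luciferase reporter stressed by proteasome inhibitor MG132; luminescence from HSF1-driven luciferase expression after 8 hours of MG132 stress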
# Format: functional
Active and inactive are the calls of the source.
Test Readout: EC50

>  <Compound>
COc1cc(/C=N/N=C2/C(=O)Nc3ccccc32)cc(OC)c1O

>  <EC50>
> 195 µM (not active)

$$$$
>  <Compound>
Cc1nn(-c2ccccc2)c(Cl)c1C(=O)N1CCN(c2ncnc3c2cnn3-c2ccccc2)CC1

>  <EC50>
5.06 µM (active)

$$$$
>  <Compound>
COc1cc(N2N=C(c3ccccc3)CC2c2ccccc2)c(C=O)cc1C=O (stereo not given)

>  <EC50>
> 195 µM (not active)

$$$$
>  <Compound>
COc1cc(O)oc1/C=N/c1ccc(C(=O)O)cc1

>  <EC50>
> 195 µM (not active)

$$$$
>  <Compound>
COc1cccc(N(C(=O)c2cccs2)c2nc3ccccc3s2)c1

>  <EC50>
> 195 µM (not active)

$$$$

Query block: Reported EC50, compound CCOC(=O)c1c(NC(=O)CSc2nnc(-c3c[nH]c4ccccc34)n2C)sc2c1CCCC2 : ____
Result block: > 195 µM (not active)

----------
# System: DNA dC->dU-editing enzyme APOBEC-3A (Homo sapiens, UniProt P31941)
# Sequence (P31941 whole entry): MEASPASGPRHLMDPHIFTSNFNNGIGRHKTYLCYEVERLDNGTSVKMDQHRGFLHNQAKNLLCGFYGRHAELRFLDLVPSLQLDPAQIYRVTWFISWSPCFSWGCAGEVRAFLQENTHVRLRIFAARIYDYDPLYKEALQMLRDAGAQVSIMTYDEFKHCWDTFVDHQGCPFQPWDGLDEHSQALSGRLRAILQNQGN
# Test Protocol: Dose Response confirmation of small molecule APOBEC3A DNA Deaminase Inhibitors via a fluorescence-based single-stranded DNA deaminase assay. [Related pubchem assays (depositor defined):AID493011, AID493024]
# Type: functional
Activity calls are given as the source filed them.
Reported IC50 values for the following compounds.

Example entries and their recorded answers appear below.
>  <Compound>
COc1cc2c(cc1OC)-c1c(OC)c(OC)cc3c1[C@H](C2)[N+](C)(C)CC3 [GLAUCINE METHIODIDE]

>  <Test Readout>
IC50

>  <Measured Result>
1.85 µM (active)

$$$$
>  <Compound>
CCn1ncc(-c2ccnc3cc(C(=O)O)nn23)c1C

>  <Test Readout>
IC50

>  <Measured Result>
3.82 µM (active)

$$$$
>  <Compound>
COc1ccc(S(=O)(=O)N(CCc2ccccc2)CC(=O)NC(C)C)cc1

>  <Test Readout>
IC50

>  <Measured Result>
6.35 µM (active)

$$$$

Next compound, please.
Query block: Bench note: what IC50 did CC(C)NC(=O)C(C)N1CCN(S(=O)(=O)c2ccc3ccccc3c2)CC1 (centres undefined) show?
Result block: 3.38 µM (active)

----------
We begin with a simple list: items and their reported IC50.
# System: Caspase-3 (Homo sapiens);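 also: Dose-response selectivity test against caspase-3 for candidate inhibitors of sentrin-specific proteases (SENPs)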
# Format: functional
Calls of active or inactive are those of the source.

Recorded IC50, per entry:
>  <Compound>
Fc1ccc(NC(=S)N2N=CCC2c2ccccc2)cc1 (stereo not given)

>  <IC50>
15.9 µM (active)

$$$$
>  <Compound>
Cc1cc(-n2c(C)cc(C(=O)COc3ccc(F)c(F)c3)c2C)no1

>  <IC50>
21 µM (active)

$$$$
>  <Compound>
CC(=O)N(/N=C1\Sc2ccccc2C1=O)c1cccc(C)c1

>  <IC50>
65.8 µM (active)

$$$$

Query block: I am curious: what IC50 value has been reported for Clc1ccc(-c2cc3ccccc3[nH]2)cc1 ?
Result block: 16 µM (active)

Query block: What measured IC50 goes with C/C(=N/OC(=O)c1ccccc1Br)c1ccc(C)cc1 ?
Result block: 31.3 µM (active)

----------
The source made the active and inactive calls.
Estrogen receptor (Homo sapiens, UniProt P03372) data, read-out IC50;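 also: potency for inhibiting coactivator peptide recruitment to the receptor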
Sequence (P03372 whole entry): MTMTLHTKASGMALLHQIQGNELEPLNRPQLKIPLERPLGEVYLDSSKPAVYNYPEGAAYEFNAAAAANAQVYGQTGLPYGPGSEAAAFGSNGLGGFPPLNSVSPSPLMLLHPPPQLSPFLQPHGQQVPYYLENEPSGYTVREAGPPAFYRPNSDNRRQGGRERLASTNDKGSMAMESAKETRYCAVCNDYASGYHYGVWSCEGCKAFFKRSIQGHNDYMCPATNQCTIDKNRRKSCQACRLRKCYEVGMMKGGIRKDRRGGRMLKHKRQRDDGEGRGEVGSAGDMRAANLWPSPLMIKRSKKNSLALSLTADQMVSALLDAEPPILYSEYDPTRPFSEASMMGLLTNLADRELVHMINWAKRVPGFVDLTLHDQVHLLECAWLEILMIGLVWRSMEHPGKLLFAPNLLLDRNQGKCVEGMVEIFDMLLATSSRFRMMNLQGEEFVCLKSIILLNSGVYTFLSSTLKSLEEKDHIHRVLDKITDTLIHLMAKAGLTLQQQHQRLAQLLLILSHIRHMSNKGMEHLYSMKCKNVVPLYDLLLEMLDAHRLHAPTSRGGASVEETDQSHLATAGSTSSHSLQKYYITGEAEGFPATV

>  <Compound>
O=C(Nc1cccc(-c2cnc3ccccc3n2)c1)c1cccc(NC(=O)c2ccco2)c1

>  <System>
Estrogen receptor (Homo sapiens, UniProt P03372);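 also: potency for inhibiting coactivator peptide recruitment to the receptor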

>  <IC50>
13.1 µM (active)

$$$$
>  <Compound>
CC1(C)CC(=O)c2cnc(NCC3CCCO3)nc2C1 (centres undefined)

>  <System>
Estrogen receptor (Homo sapiens, UniProt P03372);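 also: potency for inhibiting coactivator peptide recruitment to the receptor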

>  <IC50>
> 50 µM (not active)

$$$$
>  <Compound>
COc1ccc2c(c1)c(=O)oc1cc3oc(C)c(C)c3cc12

>  <System>
Estrogen receptor (Homo sapiens, UniProt P03372);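 also: potency for inhibiting coactivator peptide recruitment to the receptor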

>  <IC50>
6.9 µM (active)

$$$$

Query block: Given CCc1ccc2nc(O)c(C3C(C#N)=C(N)Oc4c3ccc3cccnc43)cc2c1 (centres undefined) , state its recorded IC50.
Result block: 11.3 µM (active)

----------
# System: UniProt:Q06710
# Sequence (Q06710 whole entry): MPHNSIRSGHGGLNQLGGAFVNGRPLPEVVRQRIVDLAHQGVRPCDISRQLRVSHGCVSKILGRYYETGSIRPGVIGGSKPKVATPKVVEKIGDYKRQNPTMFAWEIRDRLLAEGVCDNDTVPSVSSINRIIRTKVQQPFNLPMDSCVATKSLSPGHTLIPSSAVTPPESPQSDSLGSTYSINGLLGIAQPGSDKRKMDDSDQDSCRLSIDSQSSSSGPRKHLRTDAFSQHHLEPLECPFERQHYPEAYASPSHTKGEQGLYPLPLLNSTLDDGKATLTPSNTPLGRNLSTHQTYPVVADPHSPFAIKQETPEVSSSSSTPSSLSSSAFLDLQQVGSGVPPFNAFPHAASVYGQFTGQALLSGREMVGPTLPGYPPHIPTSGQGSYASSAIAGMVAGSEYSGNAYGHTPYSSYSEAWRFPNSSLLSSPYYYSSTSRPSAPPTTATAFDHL
# Test Protocol: inhibitors of PAX8-driven TPO luciferase reporter, dose response, RMG-I cells, cherry-pick (AID 687027);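 also: luciferase reporter driven by Pax8 target thyroperoxidase promoter measured by SteadyGlo luminescence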
# Type: functional, cell-based
Active and inactive are the calls of the source.
Test Readout: AC50

Solved entries (count: 8):
>  <Compound>
CN[C@H]1CCc2cc(OC)c(OC)c(OC)c2-c2ccc(OC)c(=O)cc21

>  <AC50>
< 0.26 µM (active)

$$$$
>  <Compound>
O=C(Nc1ccc(C(F)(F)F)cc1)N1C[C@@H]2N[C@H](C1)[C@@H]2c1ccc(-c2ccccc2)cc1

>  <AC50>
8.62 µM (active)

$$$$
>  <Compound>
O=C(Nc1cccc(Cl)c1)Nc1csc([N+](=O)[O-])c1

>  <AC50>
11.6 µM (active)

$$$$
>  <Compound>
C[C@@H]1CCCCO[C@H](CN(C)S(=O)(=O)c2ccc(F)cc2)[C@H](C)CN([C@@H](C)CO)C(=O)c2cc(NS(=O)(=O)c3ccc(Cl)cc3)ccc2O1

>  <AC50>
9.75 µM (active)

$$$$
>  <Compound>
CCC1(O)C(=O)OCc2c1cc1n(c2=O)Cc2cc3c(N)cccc3nc2-1 (centres undefined)

>  <AC50>
< 0.26 µM (active)

$$$$
>  <Compound>
O=C(NCC1CCCO1)C(=Cc1cccc([N+](=O)[O-])c1)C(=O)NCC1CCCO1 (centres undefined)

>  <AC50>
3.43 µM (active)

$$$$
>  <Compound>
CCc1ccc2[nH]c3nc(N/N=C/c4ccc(O)cc4O)nnc3c2c1

>  <AC50>
2.7 µM (active)

$$$$
>  <Compound>
CCCN1[C@H](C(=O)N2CCOCC2)[C@@H](CO)[C@@H]2Cn3c(ccc(/C=C/c4ccccc4)c3=O)[C@@H]21

>  <AC50>
48.2 µM (active)

$$$$

# ---- query compound ----
Query block: What does the record list as AC50 for CC(C)CC#Cc1ccc2c(c1)O[C@@H](CN(C)Cc1ccncc1)[C@H](C)CN([C@H](C)CO)S2(=O)=O ?
Result block: 4.41 µM (active)
